Reference source: ChEMBL document CHEMBL1811918

Recorded CC50 at 72 h, one value per entry.
protocol: Cytotoxicity against human C8166 cells after 3 days by MTT assay
Assay type: cell-based

{"columns": ["compound", "valueOperator", "CC50 at 72 h / µM"],
 "data": [
  ["CC(=O)CC[C@@H](C(C)C)[C@@H]1[C@H]2CCC(=O)[C@H]21", ">", 450],
  ["CC(C)[C@H]1CC[C@@]2(C)[C@@H]1[C@H]1O[C@@H]2CC[C@@H]1C(=O)O", "=", 195],
  ["C=C1CC[C@@H](O)[C@@]2(C)CC[C@H](C(C)C)[C@@H](O)[C@H]12", "=", 68.1],
  ["C[C@H](/C=C/[C@]12O[C@@]1(C)C[C@@H](O)CC2(C)C)O[C@@H]1O[C@H](CO)[C@@H](O)[C@H](O)[C@H]1O [PHLOMUROSIDE]", ">", 258],
  ["C=C1CC[C@@H](O)[C@]2(C)CC[C@@](O)(C(C)C)C[C@@H]12", ">", 420],
  ["Cc1cn([C@H]2C[C@H](N=[N+]=[N-])[C@@H](CO)O2)c(=O)[nH]c1=O", "=", 4070],
  ["C=C1CC[C@H]2[C@@H]([C@@H]3[C@@H]1CC[C@@]3(C)O)C2(C)C", "=", 170],
  ["C=C1CC[C@H](O)[C@@]2(C)CC[C@@H]([C@@H](O)C(C)C)[C@H]12", "=", 398]
]}

---

protocol: Therapeutic index, ratio of CC50 for human C8166 cells to EC50 for Human immunodeficiency virus 1 3B infected in human C8166 cells
Format: cell-based
experimentalContext: read-out: Ratio CC50/EC50
resultType: selectivity ratio

{"columns": ["structureSmilesString", "valueOperator", "measurement"],
 "data": [
  ["C=C(C)[C@@H]1CC[C@@]2(C)[C@H](O)CC[C@@](C)(O)[C@@H]2C1", ">", 2.8],
  ["CC(C)[C@H]1CC[C@@]2(C)[C@@H]1[C@@H]1O[C@]1(CO)CC[C@@H]2O", "=", 2.9],
  ["C=C1CC[C@H](O)[C@@]2(C)CC[C@@H]([C@@H](O)C(C)C)[C@H]12", "=", 2.4],
  ["C=C1CC[C@@H](O)[C@@]2(C)CC[C@H](C(C)C)[C@@H](O)[C@H]12", "=", 2.1]
]}

---

protocol: Cytotoxicity against human C8166 cells after 3 days by MTT assay
Type: cell-based

{"columns": ["molecule", "CC50 at 72 h"],
 "data": [
  ["CC(C)(O)[C@H]1C[C@H]2[C@H](CC[C@@]2(C)O)[C@](C)(O)C[C@@H]1O", "> 368 µM"],
  ["CC(C)[C@H]1CC[C@@]2(C)[C@@H]1[C@@H]1O[C@]1(CO)CC[C@@H]2O", "358 µM"],
  ["C=C(C)[C@@H]1CC[C@@]2(C)[C@H](O)CC[C@@](C)(O)[C@@H]2C1", "> 420 µM"],
  ["CC(=O)C=C=C1C(C)(C)C[C@H](O)C[C@@]1(C)O[C@@H]1O[C@H](CO)[C@@H](O)[C@H](O)[C@H]1O [CITROSIDE B]", "> 259 µM"],
  ["C=C1CC[C@@H](O)[C@]2(C)CC[C@H](CC(C)(C)O)[C@@H]12", "> 420 µM"],
  ["CC(C)C1=C[C@@H]2[C@H](CC[C@@]2(C)O)[C@@](C)(O)CC1", "> 420 µM"],
  ["CC(=O)/C=C/[C@@]1(O)C(C)=CC(=O)CC1(C)C", "> 450 µM"]
]}
